Tested on: Cerebrospinal fluid
Assay: Drug level in Sprague-Dawley rat CSF at 10 mg/kg, po
Conditions: read-out: Drug uptake, in vivo
Measurement name: concentration (nM)
Value expressed in nM; do not type the unit.

Entry Cn1cc(-c2ccc(Cn3cc(C(=O)O)c(=O)c4c3CCCC4O)cc2)cn1 (stereo unspecified) — recorded concentration = 110

====

Experiment: Ratio of drug levell in brain to plasma in Sprague-Dawley rat at 10 mg/kg, po
Measurement name: Kp

Entry Cn1cc(-c2ccc(Cn3cc(C(=O)O)c(=O)c4c3CCCC4O)cc2)cn1 (stereo unspecified) — recorded Kp = 0.01

====

Biological target: Muscarinic acetylcholine receptor M1 (Homo sapiens)
Sequence (whole entry): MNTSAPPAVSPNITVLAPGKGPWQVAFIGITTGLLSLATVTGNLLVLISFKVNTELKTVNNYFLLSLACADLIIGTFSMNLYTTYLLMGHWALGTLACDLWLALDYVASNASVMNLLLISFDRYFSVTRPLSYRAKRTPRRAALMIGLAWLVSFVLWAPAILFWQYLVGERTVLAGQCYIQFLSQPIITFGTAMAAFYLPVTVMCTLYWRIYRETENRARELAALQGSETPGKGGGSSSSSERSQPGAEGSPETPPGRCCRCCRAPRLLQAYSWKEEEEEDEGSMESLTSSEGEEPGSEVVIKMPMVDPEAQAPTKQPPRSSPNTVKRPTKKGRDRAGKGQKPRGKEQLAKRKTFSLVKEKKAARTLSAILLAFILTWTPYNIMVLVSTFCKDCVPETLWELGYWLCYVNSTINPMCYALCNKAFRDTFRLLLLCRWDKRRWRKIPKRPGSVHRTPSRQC
Test: Agonist activity at human muscarinic M1 receptor expressed in CHO cells assessed as increase in EC20 of concentration acetylcholine-induced calcium mobilization by FLIPR assay relative to acetylcholine
Assay type: functional, cell-based
So I've got a bunch of molecules here, and I need their Activity values.
Value expressed in %; do not type the unit.

Entry O=C(O)c1cn(Cc2ccc(-c3ccccc3)cc2)c2c(c1=O)CCCC2=O — recorded Activity = 70

Entry O=C(O)c1cn(Cc2ccc(-c3ccccc3)cc2)c2c(c1=O)CCC2 — recorded Activity = 99

Entry COC1CCCc2c1c(=O)c(C(=O)O)cn2Cc1ccc(-c2ccccc2)cc1 (stereo not drawn) — recorded Activity = 90

Entry O=C(O)c1cn(Cc2ccc(-c3ccccc3)cc2)c2c(c1=O)CCCC2 — recorded Activity = 91

Entry O=C(O)c1cn(Cc2ccc(-c3ccccc3)cc2)c2c(c1=O)C(=O)CCC2 — recorded Activity = 94

Entry O=C(O)c1cn(Cc2ccc(-c3ccccc3)cc2)c2ccccc2c1=O — recorded Activity = 92

Entry O=C(O)c1cn(Cc2ccc(-c3ccccc3)cc2)c2c(c1=O)CCCC2O (stereo not drawn) — recorded Activity = 59

Entry O=C(O)c1cn(Cc2ccc(-c3ccccc3)cc2)c2c(c1=O)C(O)CCC2 (stereo not drawn) — recorded Activity = 99

====

So I've got a bunch of molecules here, and I need their Activity values.
Target: UniProt:P11229
Experiment: Agonist activity at human muscarinic M1 receptor expressed in CHO cells assessed as inflection point for increase of EC20 of acetylcholine-induced calcium mobilization by FLIPR assay
Type: functional, cell-based
Value expressed in nM; do not type the unit.

# O=C(O)c1cn(Cc2ccc(-c3ccc(Cl)cc3)cc2)c2c(c1=O)C(O)CCC2 (stereo unspecified) with UniProt:P11229: Activity is 340

# O=C(O)c1cn(Cc2ccc(-c3ccccc3)cc2)c2c(c1=O)CCCC2 with UniProt:P11229: Activity is 751

# O=C(O)c1cn(Cc2ccc(-c3ccccc3)cc2)c2c(c1=O)CCCC2O (stereo unspecified) with UniProt:P11229: Activity is 8190

# Cn1cc(-c2ccc(Cn3cc(C(=O)O)c(=O)c4c3CCCC4O)cc2)cn1 (stereo unspecified) with UniProt:P11229: Activity is 908

# COC1CCCc2c1c(=O)c(C(=O)O)cn2Cc1ccc(-c2ccccc2)cc1 (stereo unspecified) with UniProt:P11229: Activity is 1100

# O=C(O)c1cn(Cc2ccc(-n3cccn3)cc2)c2c(c1=O)C(O)CCC2 (stereo unspecified) with UniProt:P11229: Activity is 1370

# O=C(O)c1cn(Cc2ccc(-c3ccccc3)cc2)c2ccccc2c1=O with UniProt:P11229: Activity is 212

# O=C(O)c1cn(Cc2ccc(-n3ccnc3)cc2)c2c(c1=O)C(O)CCC2 (stereo unspecified) with UniProt:P11229: Activity is 2500

# Nc1ccc(-c2ccc(Cn3cc(C(=O)O)c(=O)c4c3CCCC4O)cc2)cn1 (stereo unspecified) with UniProt:P11229: Activity is 2420

# O=C(O)c1cn(Cc2ccc(-c3ccccc3)cc2)c2c(c1=O)CCCC2=O with UniProt:P11229: Activity is 4890

# COc1ccc(-c2ccc(Cn3cc(C(=O)O)c(=O)c4c3CCCC4O)cc2)cn1 (stereo unspecified) with UniProt:P11229: Activity is 320

# COc1cccc(-c2ccc(Cn3cc(C(=O)O)c(=O)c4c3CCCC4O)cc2)c1 (stereo unspecified) with UniProt:P11229: Activity is 410

# O=C(O)c1cn(Cc2ccc(-c3cccc(Cl)c3)cc2)c2c(c1=O)C(O)CCC2 (stereo unspecified) with UniProt:P11229: Activity is 340

# O=C(O)c1cn(Cc2ccc(-c3ccccc3)cc2)c2c(c1=O)CCC2 with UniProt:P11229: Activity is 810

# O=C(O)c1cn(Cc2ccc(-c3ccsc3)cc2)c2c(c1=O)C(O)CCC2 (stereo unspecified) with UniProt:P11229: Activity is 2640

# O=C(O)c1cn(Cc2ccc(-c3ccoc3)cc2)c2c(c1=O)C(O)CCC2 (stereo unspecified) with UniProt:P11229: Activity is 750

# O=C(O)c1cn(Cc2ccc(-c3ccccc3Cl)cc2)c2c(c1=O)C(O)CCC2 (stereo unspecified) with UniProt:P11229: Activity is 1400

# CN(C)c1ccc(-c2ccc(Cn3cc(C(=O)O)c(=O)c4c3CCCC4O)cc2)cn1 (stereo unspecified) with UniProt:P11229: Activity is 1100

# O=C(O)c1cn(Cc2ccc(-c3ccccc3)cc2)c2c(c1=O)C(=O)CCC2 with UniProt:P11229: Activity is 800

# COc1ccc(-c2ccc(Cn3cc(C(=O)O)c(=O)c4c3CCCC4O)cc2)cc1 (stereo unspecified) with UniProt:P11229: Activity is 1390

# COc1ccccc1-c1ccc(Cn2cc(C(=O)O)c(=O)c3c2CCCC3O)cc1 (stereo unspecified) with UniProt:P11229: Activity is 3100

====

Target: Muscarinic acetylcholine receptor M1 (Homo sapiens) (UniProt P11229)
Assay: Agonist activity at human muscarinic M1 receptor expressed in CHO cells assessed as inflection point for increase of EC20 of acetylcholine-induced calcium mobilization by FLIPR assay
Format: functional, cell-based
So I've got a bunch of compounds here, and I need their Activity values.
Value expressed in nM; do not type the unit.

# Nc1cccc(-c2ccc(Cn3cc(C(=O)O)c(=O)c4c3CCCC4O)nc2)c1 (stereo not drawn) with Muscarinic acetylcholine receptor M1 (Homo sapiens) (UniProt P11229): Activity is 420

# O=C(O)c1cn(Cc2ccc(-c3ccc(F)cc3)cn2)c2c(c1=O)C(O)CCC2 (stereo not drawn) with Muscarinic acetylcholine receptor M1 (Homo sapiens) (UniProt P11229): Activity is 1100

# O=C(O)c1cn(Cc2ccc(-c3ccc(F)nc3)cc2)c2c(c1=O)C(O)CCC2 (stereo not drawn) with Muscarinic acetylcholine receptor M1 (Homo sapiens) (UniProt P11229): Activity is 14800

====

Test system: Plasma
Assay: Drug levell in Sprague-Dawley rat plasma at 10 mg/kg, po
Details: read-out: Cp, in vivo
Measurement name: concentration (µM)
Value expressed in µM; do not type the unit.

Entry Cn1cc(-c2ccc(Cn3cc(C(=O)O)c(=O)c4c3CCCC4O)cc2)cn1 (stereo unspecified) — recorded concentration = 26.7

The values you see were collected from ChEMBL document CHEMBL1156223.
